Experiment: Confirmatory qHTS for Inhibitors of ATXN expression; further: nearly all actives have a fitted effect of over 65% in size
Settings: ATXN2-luciferase reporter cells, luminescence, 24 h; series mostly up to 11.5 µM
Out of some 2,100 compounds screened, about 940 (45%) were called active. Another 48% or so got no clear call; they are omitted. The call rests on the fitted dose curve; in most records, active means well fitted inhibition curve with a large enough effect; inconclusive means small, poorly fitted or top-dose-only effect; inactive means no such curve, though single readings can be large or run the other way. So high a share suggests a set chosen from earlier hits. Some of the results follow.
Reply using exactly one outcome from TRUE (active), FALSE (inactive)

Incoming: Give the logged outcome of this assay for the following compound: `COCCCNCCCOc1ccc(Cl)cc1C(C)(C)C`
Outgoing: TRUE

Incoming: Give the logged outcome of this assay for the following compound: CCCC(NCC(O)COc1ccc(-c2ccccc2)cc1)c1ccccc1 (stereo not given)
Outgoing: TRUE

Incoming: Give the logged outcome of this assay for the following compound: `CC(C)(C)c1cc[n+](C2=C([O-])c3ccccc3C(=O)/C2=N\S(=O)(=O)c2cccs2)cc1`
Outgoing: TRUE

Incoming: Give the logged outcome of this assay for the following compound: `COc1cccc(NC(=O)/C=C/c2ccc(S(=O)(=O)N3CCOCC3)cc2)c1`
Outgoing: FALSE

Incoming: Give the logged outcome of this assay for the following compound: COC(=O)[C@H]1C[C@H](OC(=O)NC2CC2)[C@@]2(O)CN(S(=O)(=O)c3ccc(C)cc3)CC2[C@H]1C(=O)OC (stereo not given in full)
Outgoing: FALSE

====

Test: Confirmatory qHTS for Inhibitors of ATXN expression; further: nearly all actives have a fitted effect of over 65% in size
Details: ATXN2-luciferase reporter cells, luminescence, 24 h; series mostly up to 11.5 µM
Description: PI: Daniel Scoles Ph.D. University of Utah School of Medicine, Salt Lake City, Utah MLPCN Grant: NS073009 Spinocerebellar ataxia type 2 (SCA2) is a multisystem neurodegenerative disease caused by a dominantly acting mutation leading to expansion of a polyQ domain in the ataxin-2 protein (ATXN2). SCA2 patients develop progressive ataxia and later lose function in other neuronal systems. […] Here we describe a 5-7 dose quantitative high thoroughput screen (qHTS) for compounds lowering ATXN2 expression. […]
Out of some 2,100 compounds screened, about 940 (45%) were called active. Roughly 48% stayed inconclusive and do not appear here. Calls come from the whole dose curve; as a rule, active = well fitted inhibition curve with a large enough effect; inconclusive = small, poorly fitted or top-dose-only effect; inactive = no such curve, though single readings can be large or run the other way. The set was probably picked from earlier hits. The list shows a part of the results.
Reply using exactly one outcome from true = active, false = inactive

Incoming: Give the logged outcome of this assay for the following molecule: `NNC(=O)/C(=N/Nc1ccccc1)S(=O)(=O)c1ccc(Cl)cc1`
Outgoing: true

Incoming: Give the logged outcome of this assay for the following molecule: `O=C(Nc1nnc(-c2ccc(F)cc2)o1)c1cc(Cl)sc1Cl`
Outgoing: true

Incoming: Give the logged outcome of this assay for the following molecule: `CC(=O)Nc1sc2c(c1-c1nc3ccccc3s1)CN(C(C)C)CC2`
Outgoing: true

Incoming: Give the logged outcome of this assay for the following molecule: Cc1cc(C)c(C(O)c2ncc(-c3cccc4ccccc34)[nH]2)c(C)c1 (stereo not given)
Outgoing: false

Incoming: Give the logged outcome of this assay for the following molecule: `NS(=O)(=O)c1ccc(Nc2nc(-c3ccc(F)cc3)cs2)cc1`
Outgoing: false

Incoming: Give the logged outcome of this assay for the following molecule: OC(c1cc(F)cc(Cl)c1)c1ncc(-c2cccc(C(F)(F)F)c2)[nH]1 (stereo not given)
Outgoing: true

Incoming: Give the logged outcome of this assay for the following molecule: `O=c1c2c(-c3ccccc3)csc2nc2c3ccccc3c(NCCN3CCOCC3)nn12`
Outgoing: true

Incoming: Give the logged outcome of this assay for the following molecule: O=C(N/N=C/c1ccccc1O)C1CC(=O)N(c2ccc(F)cc2)C1 (stereo not given)
Outgoing: true

Incoming: Give the logged outcome of this assay for the following molecule: OC(c1ccc(Cl)cc1)c1ncc(-c2cccc(C(F)(F)F)c2)[nH]1 (stereo not given)
Outgoing: false

Incoming: Give the logged outcome of this assay for the following molecule: `CN(CC(=O)Nc1ccc(Cl)c(C(F)(F)F)c1)C(=O)c1cccnc1Sc1ccccc1`
Outgoing: false
